# Tested on: cultured human mast cells (CHMC)
# assay comment: CHMC low cell density IgE activation: tryptase assay
# Type: cell-based
# condition context: low cell density; read-out: CHMC anti-IgE Tryptase
quantity kind: IC50 (nM)

>>> reported_value("COc1cc(Nc2ncc(F)c(Nc3ccc4cn[nH]c4c3)n2)cc(OC)c1")
167
>>> reported_value("COc1ccc(Nc2ncc(F)c(Nc3ccc4c(n3)NC(=O)CO4)n2)cc1")
103
>>> reported_value("CC1(C)Oc2ccc(Nc3nc(Nc4ccc5c(cnn5CCCO)c4)ncc3F)cc2NC1=O")
36
>>> reported_value("Fc1cc(Nc2nc(Nc3ccc4cn[nH]c4c3)ncc2F)ccc1Cl")
204
>>> reported_value("CNC(=O)COc1cccc(Nc2ncc(F)c(Nc3ccc(OCC(=O)NC)c(Cl)c3)n2)c1")
450
>>> reported_value("NC1CCOc2ccc(Nc3nc(Nc4ccc(Cl)c(Cl)c4)ncc3F)cc21 (racemic)")
239
>>> reported_value("CC(=O)N1CCN(c2ccc(Nc3ncc(F)c(NC4CCC4)n3)cc2)CC1")
1100
>>> reported_value("OCCCn1ncc2cc(Nc3ncc(F)c(Nc4ccc(F)c(F)c4)n3)ccc21")
291
>>> reported_value("CC(=O)N1CCN(c2ccc(Nc3ncc(F)c(Nc4ccc5c(n4)NC(=O)C(C)(C)O5)n3)cc2)CC1")
125
>>> reported_value("NC(=O)c1ccc(Nc2ncc(F)c(Nc3ccc(Cl)c(Cl)c3)n2)cc1")
70
>>> reported_value("COc1cc(Nc2nc(Nc3ccc4c(c3)C(N)CCO4)ncc2F)cc(OC)c1 (racemic)")
5530
>>> reported_value("CCN(CC)CCCNc1ncc(F)c(Nc2ccc3c(c2)C(=O)NC(=O)C3(C)C)n1")
6950
>>> reported_value("COc1c(Cl)cc(Nc2ncc(F)c(Nc3ccc4c(c3)NC(=O)C(C)(C)O4)n2)cc1Cl")
144
>>> reported_value("NCc1ccc(Nc2ncc(F)c(Nc3ccc(Cl)c(Cl)c3)n2)cc1")
632
>>> reported_value("Cc1cccc(C)c1Nc1ncc(F)c(Nc2ccc(Cl)c(Cl)c2)n1")
599
>>> reported_value("COc1ccc(Nc2nc(Nc3cccc(OCC(=O)NCCO)c3)ncc2F)cc1Cl")
155
>>> reported_value("O=C1Nc2cc(Nc3nc(Nc4ccc5cc[nH]c5c4)ncc3F)ccc2OC1(F)F")
35.9
>>> reported_value("CCN(CC)CCNC(=O)c1ccc(Nc2ncc(F)c(Nc3ccc4c(c3)NC(=O)[C@H](C)O4)n2)cc1")
148
>>> reported_value("Cn1ncc2ccc(Nc3nc(Nc4ccc5c(c4)NC(=O)C(C)(C)O5)ncc3F)cc21")
628
>>> reported_value("COc1ccc(Nc2nc(Nc3cc(Cl)cc(Cl)c3)ncc2F)cc1Cl")
11300
>>> reported_value("COc1cc(Nc2ncc(F)c(Nc3ccc4c(n3)NC(=O)C(C)(C)O4)n2)cc(OC)c1")
94
>>> reported_value("COC(=O)N1CCN(c2ccc(Nc3ncc(F)c(NC4CCC4)n3)cc2)CC1")
1390
>>> reported_value("CN1CCN(c2ccc(Nc3ncc(F)c(Nc4ccc5c(n4)NC(=O)CO5)n3)cc2)CC1")
256
>>> reported_value("CCN(CC)CCNC(=O)c1ccc(Nc2ncc(F)c(Nc3ccc4c(c3)C(=O)NC(=O)C4(C)C)n2)cc1")
1420
>>> reported_value("O=C1COc2ccc(Nc3nc(Nc4ccc5cc[nH]c5c4)ncc3F)nc2N1")
81
>>> reported_value("CNC(=O)CCn1ncc2cc(Nc3ncc(F)c(Nc4ccc5c(c4)NC(=O)C(C)(C)O5)n3)ccc21")
106
>>> reported_value("CNC(=O)COc1cccc(Nc2ncc(F)c(Nc3cc(Cl)c(OC)c(Cl)c3)n2)c1")
370
